target: human Nav1.8/b3 (Homo sapiens); construct: expressed in transfected cells; host or cells: CHO; assay: Compound Profiling Human NaV1.8/β3 Cell Line—SyncroPatch384PE Assay (automated patch clamp, stably transfected CHO cells); format: cell-based; conditions: P2 (IC50, inactivated state block), P2 measurement, inactivated state block; Nav1.8/b3 CHO cells, inactivation step −35 mV 10 sec; third set of compounds
Sequence (Q9Y5Y9 whole entry): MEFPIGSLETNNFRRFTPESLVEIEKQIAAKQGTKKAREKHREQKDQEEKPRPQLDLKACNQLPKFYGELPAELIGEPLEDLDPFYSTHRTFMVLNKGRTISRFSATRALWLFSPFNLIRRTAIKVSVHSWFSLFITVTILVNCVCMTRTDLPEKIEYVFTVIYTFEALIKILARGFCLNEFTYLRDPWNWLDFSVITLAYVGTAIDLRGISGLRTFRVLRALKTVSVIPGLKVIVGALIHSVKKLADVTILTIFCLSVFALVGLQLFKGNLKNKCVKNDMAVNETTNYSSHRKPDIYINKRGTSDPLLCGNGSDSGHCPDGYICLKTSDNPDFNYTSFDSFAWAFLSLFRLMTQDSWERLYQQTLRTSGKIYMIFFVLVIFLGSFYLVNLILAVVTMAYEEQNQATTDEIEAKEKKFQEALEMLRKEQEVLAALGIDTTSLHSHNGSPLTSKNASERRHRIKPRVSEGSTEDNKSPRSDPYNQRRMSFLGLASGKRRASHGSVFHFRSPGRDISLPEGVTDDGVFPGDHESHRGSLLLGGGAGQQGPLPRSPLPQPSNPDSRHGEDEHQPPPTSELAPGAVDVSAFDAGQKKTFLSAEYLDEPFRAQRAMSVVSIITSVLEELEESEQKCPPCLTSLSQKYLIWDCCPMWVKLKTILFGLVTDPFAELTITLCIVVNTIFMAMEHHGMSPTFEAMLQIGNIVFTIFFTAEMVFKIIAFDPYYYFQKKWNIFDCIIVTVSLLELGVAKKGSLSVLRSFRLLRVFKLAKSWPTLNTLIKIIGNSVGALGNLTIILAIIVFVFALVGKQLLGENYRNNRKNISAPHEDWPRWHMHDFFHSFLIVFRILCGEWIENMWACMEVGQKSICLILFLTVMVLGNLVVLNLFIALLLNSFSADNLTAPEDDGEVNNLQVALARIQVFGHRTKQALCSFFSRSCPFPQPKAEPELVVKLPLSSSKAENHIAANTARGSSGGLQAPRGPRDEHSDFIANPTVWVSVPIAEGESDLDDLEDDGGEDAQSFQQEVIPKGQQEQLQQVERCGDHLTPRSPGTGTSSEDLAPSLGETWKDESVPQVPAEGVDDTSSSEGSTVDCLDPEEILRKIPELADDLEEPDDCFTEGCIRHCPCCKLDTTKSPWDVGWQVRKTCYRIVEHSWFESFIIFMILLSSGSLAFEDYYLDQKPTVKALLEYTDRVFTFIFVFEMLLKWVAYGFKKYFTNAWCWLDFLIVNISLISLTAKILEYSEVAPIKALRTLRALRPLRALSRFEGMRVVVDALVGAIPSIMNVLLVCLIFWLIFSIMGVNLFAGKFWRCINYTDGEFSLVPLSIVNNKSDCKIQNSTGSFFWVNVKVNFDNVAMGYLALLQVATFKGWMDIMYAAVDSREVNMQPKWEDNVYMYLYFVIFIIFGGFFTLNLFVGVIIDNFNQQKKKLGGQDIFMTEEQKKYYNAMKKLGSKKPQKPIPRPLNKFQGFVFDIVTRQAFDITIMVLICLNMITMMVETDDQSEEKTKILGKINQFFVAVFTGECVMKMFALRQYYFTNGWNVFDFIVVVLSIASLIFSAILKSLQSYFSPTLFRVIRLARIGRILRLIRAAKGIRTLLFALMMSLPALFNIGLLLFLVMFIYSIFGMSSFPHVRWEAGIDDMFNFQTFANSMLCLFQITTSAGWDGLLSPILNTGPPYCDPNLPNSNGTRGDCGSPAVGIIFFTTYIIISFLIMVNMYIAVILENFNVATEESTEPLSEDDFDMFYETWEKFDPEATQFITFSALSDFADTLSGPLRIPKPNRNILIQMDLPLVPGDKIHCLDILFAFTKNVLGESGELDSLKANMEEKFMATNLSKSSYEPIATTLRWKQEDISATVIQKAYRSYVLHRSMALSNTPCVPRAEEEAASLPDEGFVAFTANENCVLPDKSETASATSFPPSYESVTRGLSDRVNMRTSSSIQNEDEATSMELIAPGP
Sequence (Q9NY72 23-215 partner): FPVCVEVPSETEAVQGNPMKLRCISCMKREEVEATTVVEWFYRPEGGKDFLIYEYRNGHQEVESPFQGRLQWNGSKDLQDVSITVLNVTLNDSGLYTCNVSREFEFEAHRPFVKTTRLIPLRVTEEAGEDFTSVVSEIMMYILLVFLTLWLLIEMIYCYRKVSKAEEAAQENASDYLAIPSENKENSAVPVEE
Property: IC50; scope: individual molecules

{"molecule": "Cc1nc(F)ccc1Oc1ncc(C(F)(F)F)c(C)c1C(=O)Nc1ccc(F)c(S(C)(=O)=NCCN)c1 (stereo not drawn) [Example 88C]", "IC50": "< 5 nM"}
{"molecule": "Cc1nc(F)ccc1Oc1ncc(C2CCCC2)c(C)c1C(=O)Nc1cccc([S@](C)(=N)=O)c1 [Example 87C]", "IC50": "5 to 50 nM"}
{"molecule": "Cc1nc(F)ccc1Oc1ncc(C(F)(F)F)c(C)c1C(=O)Nc1ccc(F)c([S+](C)[O-])c1 (stereo not drawn) [Example 102C]", "IC50": "5 to 50 nM"}
{"molecule": "COc1ccc(Oc2ncc(C(F)(F)F)c(C)c2C(=O)Nc2cccc([S@@](C)(=N)=O)c2)c(C)n1 [Example 116C]", "IC50": "5 to 50 nM"}
{"molecule": "Cc1nc(F)ccc1Oc1nnc(-c2ccc3c(c2)OCCO3)c(C)c1C(=O)Nc1cccc([S@](C)(=N)=O)c1", "IC50": "< 5 nM"}
{"molecule": "Cc1nc(F)ccc1Oc1nnc(C(F)(F)F)c(C)c1C(=O)Nc1cccc([S@](C)(=N)=O)c1", "IC50": "50 to 100 nM"}
{"molecule": "COc1cc(C#N)ccc1Oc1ncc(-c2ccc(C(F)F)cc2)c(C)c1C(=O)Nc1cccc([S@](C)(=N)=O)c1 [Example 23C]", "IC50": "< 5 nM"}
{"molecule": "Cc1nc(O)ccc1Oc1ncc(C(F)(F)F)c(C)c1C(=O)Nc1cccc([S@](C)(=N)=O)c1 [Example 117C]", "IC50": "> 200 nM"}
{"molecule": "COc1cc(C#N)ccc1Oc1ncc(-c2ccc(C)cc2)c(C)c1C(=O)Nc1cccc([S@](C)(=N)=O)c1 [Example 21C]", "IC50": "< 5 nM"}
{"molecule": "COc1c(Oc2cc(C(F)(F)F)nnc2C(=O)Nc2cccc(S(C)(=N)=O)c2)ccc(F)c1F (stereo not drawn) [Example 31C]", "IC50": "100 to 200 nM"}
{"molecule": "Cc1nc(F)ccc1Oc1ncc(C(C)C)c(C)c1C(=O)Nc1cccc([S@](C)(=N)=O)c1 [Example 104C]", "IC50": "50 to 100 nM"}
{"molecule": "COc1c(Oc2cc(C(F)(F)F)nnc2C(=O)Nc2cccc([S+](C)[O-])c2)ccc(F)c1F (stereo not drawn) [Example 30C]", "IC50": "> 200 nM"}
{"molecule": "COc1c(Oc2cc(C(F)(F)F)nnc2C(=O)Nc2cccc(S(C)(=O)=O)c2)ccc(F)c1F [Example 32C]", "IC50": "50 to 100 nM"}
{"molecule": "CN=[S@](C)(=O)c1cccc(NC(=O)c2c(Oc3ccc(F)nc3C)ncc(C(F)(F)F)c2C)c1 [Example 33C]", "IC50": "< 5 nM"}
{"molecule": "Cc1nc(F)ccc1Oc1nc(C(F)(F)F)c(Cl)c(C)c1C(=O)Nc1cccc([S@](C)(=N)=O)c1 [Example 35C]", "IC50": "< 5 nM"}
